Where do these numbers come from? They come from patent US20150376286A1.

Target: human CGRP receptor (CRLR + RAMP1) (human, UniProt Q16602 23-461; O60894 27-148)
Sequence (Q16602 23-461 limits assumed, chain 1 of 2): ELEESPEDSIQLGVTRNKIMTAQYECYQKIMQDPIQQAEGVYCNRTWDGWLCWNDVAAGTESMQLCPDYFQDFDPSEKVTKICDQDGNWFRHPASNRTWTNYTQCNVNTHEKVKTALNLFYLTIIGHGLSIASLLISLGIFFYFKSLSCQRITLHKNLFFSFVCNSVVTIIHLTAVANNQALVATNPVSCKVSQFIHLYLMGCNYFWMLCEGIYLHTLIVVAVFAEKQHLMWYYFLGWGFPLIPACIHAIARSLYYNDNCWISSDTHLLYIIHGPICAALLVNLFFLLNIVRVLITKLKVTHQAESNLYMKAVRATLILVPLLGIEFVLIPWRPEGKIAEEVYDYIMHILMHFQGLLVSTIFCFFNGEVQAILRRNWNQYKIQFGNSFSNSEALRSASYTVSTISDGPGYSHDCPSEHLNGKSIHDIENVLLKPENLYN
Sequence (O60894 27-148 limits assumed, chain 2 of 2): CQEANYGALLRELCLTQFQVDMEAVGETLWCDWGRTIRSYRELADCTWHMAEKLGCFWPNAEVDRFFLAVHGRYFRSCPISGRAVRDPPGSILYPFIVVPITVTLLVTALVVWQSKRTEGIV
Experiment: cell-based or functional assay
Measured cAMP assay IC50 accompanies every entry in the list below.
I only need the number, in nM, no unit after it.

Worked cases, cAMP assay IC50 given:
1E11 (antibody, human IgG2, lambda, V domains shown, also called 01E11; 01E11.2) VH: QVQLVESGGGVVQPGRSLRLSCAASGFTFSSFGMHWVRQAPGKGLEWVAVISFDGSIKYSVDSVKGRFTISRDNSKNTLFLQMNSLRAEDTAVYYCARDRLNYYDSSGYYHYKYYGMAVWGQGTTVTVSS VL: QSVLTQPPSVSEAPGQKVTISCSGSSSNIGNNYVSWYQQLPGTAPKLLIYDNNKRPSGIPDRFSGSKSGTSATLGITGLQTGDEADYYCGTWDSRLSAVVFGGGTKLTVLG : 1.77
13H2 (antibody, human IgG2, kappa, V domains shown, also called 13H2.2) VH: EVQLVESGGGLVKPGGSLRLSCAASGYTFSTYSMNWVRQAPGKGLEWVSSISSSSSYRYYADSVKGRFTISRDNAKNSLYLQMSSLRAEDTAVYYCAREGVSGSSPYSISWYDYYYGMDVWGQGTTVTVSS VL: DIQMTQSPSSLSASVGDRVTITCRASQGIRKDLGWYQQKPGKAPKRLIYGASSLQSGVPSRFSGSGSGTEFTLTISSLQPEDFATYYCLQYNSFPWTFGQGTKVEIKR : 1.95

Here's the next entry for you.
What cAMP assay IC50 value was documented for this binder, 2E7 (antibody, human IgG2, kappa, V domains shown, also called 02E7; 02E7.2) VH: EVQLLESGGGLVQPGESLRLSCAASGFTFSSYAMSWVRQAPGKGLEWVSAISGSGGRTYYADSVKGRFTISRDNSKNTLYLQMNSLRAEDTAVYYCAKDQREVGPYSSGWYDYYYGMDVWGQGTTVTVSS VL: DIQMTQSPSSLSASVGDRVTITCRASQGIRNDLGWFQQKPGKAPKRLIYAASSLQSGVPSRFSGSGSGTEFTLTISSLQPEDLATYYCLQYNIYPWTFGQGTKVEIKR ? 6.3
